protocol.details: CCTE_Shafer_MEA_acute_per_burst_spike_number_mean: CCTE's Neural Acute Assay for Average Number of Spikes Per Burst, Shafer Lab (AID 2284015);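 note: hits are decreases in mean spikes per burst versus baseline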
Method: CCTE_Shafer_MEA_acute assay is conducted using Axion Biosystems 48 well microelectrode array (MEA) plates and Maestro recording system. Each well of the MEA plate contains a grid of 16 microelectrodes embedded in the culture surface. Electrically active cells, such as neurons, can be cultured over the electrodes, and electrical activity in these cells can be recorded extracellularly. […]
Activity calls are given as the source filed them. Rule for the calls: active = hit-call score of the fitted dose curve at least 0.9, where 1 is the maximum; inactive = score below 0.9.
Classes used: active, inactive

[[record]]
compound = "O=C(O)c1ccccc1-n1cc(C(=O)O)c(=O)c2cc(Nc3c(F)cc(F)cc3Cl)c(Cl)cc21"
label = "active"

[[record]]
compound = "c1ccc2n[nH]nc2c1"
label = "inactive"

[[record]]
compound = "CCN(CC)C(=O)c1cc(S(=O)(=O)Cc2ccccc2)c(N2CCC(c3ccccc3)CC2)cc1N(CC)CCN(C)C"
label = "active"

[[record]]
compound = "O=C1O[C@H]([C@@H](O)CO)C(O)=C1O"
label = "inactive"

[[record]]
compound = "Clc1ccccc1C(c1ccccc1)(c1ccccc1)n1ccnc1"
label = "active"

[[record]]
compound = "CN(C)C(=O)C1(N2CCCCC2)CCN(CC[C@@]2(c3ccc(Cl)c(Cl)c3)CN(C(=O)c3ccccc3)CCO2)CC1"
label = "active"

[[record]]
compound = "OC12N=C(c3ccccc3)SC1Cc1cc(Cl)ccc12 (configuration not stated)"
label = "inactive"

